target or test system: T1, TNFR1 (Homo sapiens, UniProt P19438)
T1 chain: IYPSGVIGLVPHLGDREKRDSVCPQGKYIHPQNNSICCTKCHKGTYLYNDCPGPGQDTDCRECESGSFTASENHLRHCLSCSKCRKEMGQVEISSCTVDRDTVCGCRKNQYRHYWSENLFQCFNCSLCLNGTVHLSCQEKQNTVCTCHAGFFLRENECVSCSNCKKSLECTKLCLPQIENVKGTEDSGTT
experimental details: yeast display SC50
reported property: apparent Kd (screen) (nM)
Numbers only, in nM.

binder	apparent Kd (screen) / nM
L28S (designed binder) SMEEEVEKAAKEYEKKKKEAIEKHLEKSKAKDKEAAERFLKELEEAAKEYAKDEAKTMSEEEAKRRAKKYKEKVLLSELSEEEQKEIKEAEEKLVRTILKYVEEAAK	0.49
E72M (designed binder) SMEEEVEKAAKEYEKKKKEAIEKHLEKLKAKDKEAAERFLKELEEAAKEYAKDEAKTMSEEEAKRRAKKYKMKVLLSELSEEEQKEIKEAEEKLVRTILKYVEEAAK	1.69
E37S (designed binder) SMEEEVEKAAKEYEKKKKEAIEKHLEKLKAKDKEAASRFLKELEEAAKEYAKDEAKTMSEEEAKRRAKKYKEKVLLSELSEEEQKEIKEAEEKLVRTILKYVEEAAK	0.49
A35Y (designed binder) SMEEEVEKAAKEYEKKKKEAIEKHLEKLKAKDKEYAERFLKELEEAAKEYAKDEAKTMSEEEAKRRAKKYKEKVLLSELSEEEQKEIKEAEEKLVRTILKYVEEAAK	1.27
A63S (designed binder) SMEEEVEKAAKEYEKKKKEAIEKHLEKLKAKDKEAAERFLKELEEAAKEYAKDEAKTMSEEESKRRAKKYKEKVLLSELSEEEQKEIKEAEEKLVRTILKYVEEAAK	3.99

For each of the binders below, state apparent Kd (screen).
1. K31H (designed binder) SMEEEVEKAAKEYEKKKKEAIEKHLEKLKAHDKEAAERFLKELEEAAKEYAKDEAKTMSEEEAKRRAKKYKEKVLLSELSEEEQKEIKEAEEKLVRTILKYVEEAAK
2. Q84M (designed binder) SMEEEVEKAAKEYEKKKKEAIEKHLEKLKAKDKEAAERFLKELEEAAKEYAKDEAKTMSEEEAKRRAKKYKEKVLLSELSEEEMKEIKEAEEKLVRTILKYVEEAAK
3. E91G (designed binder) SMEEEVEKAAKEYEKKKKEAIEKHLEKLKAKDKEAAERFLKELEEAAKEYAKDEAKTMSEEEAKRRAKKYKEKVLLSELSEEEQKEIKEAGEKLVRTILKYVEEAAK

result:
[0.446, 5.84, 9.41]
